Cited source: patent US20100227853A1

assayedTarget: PDE4A (Homo sapiens, UniProt P27815)
Sequence (P27815 whole entry, species assumed): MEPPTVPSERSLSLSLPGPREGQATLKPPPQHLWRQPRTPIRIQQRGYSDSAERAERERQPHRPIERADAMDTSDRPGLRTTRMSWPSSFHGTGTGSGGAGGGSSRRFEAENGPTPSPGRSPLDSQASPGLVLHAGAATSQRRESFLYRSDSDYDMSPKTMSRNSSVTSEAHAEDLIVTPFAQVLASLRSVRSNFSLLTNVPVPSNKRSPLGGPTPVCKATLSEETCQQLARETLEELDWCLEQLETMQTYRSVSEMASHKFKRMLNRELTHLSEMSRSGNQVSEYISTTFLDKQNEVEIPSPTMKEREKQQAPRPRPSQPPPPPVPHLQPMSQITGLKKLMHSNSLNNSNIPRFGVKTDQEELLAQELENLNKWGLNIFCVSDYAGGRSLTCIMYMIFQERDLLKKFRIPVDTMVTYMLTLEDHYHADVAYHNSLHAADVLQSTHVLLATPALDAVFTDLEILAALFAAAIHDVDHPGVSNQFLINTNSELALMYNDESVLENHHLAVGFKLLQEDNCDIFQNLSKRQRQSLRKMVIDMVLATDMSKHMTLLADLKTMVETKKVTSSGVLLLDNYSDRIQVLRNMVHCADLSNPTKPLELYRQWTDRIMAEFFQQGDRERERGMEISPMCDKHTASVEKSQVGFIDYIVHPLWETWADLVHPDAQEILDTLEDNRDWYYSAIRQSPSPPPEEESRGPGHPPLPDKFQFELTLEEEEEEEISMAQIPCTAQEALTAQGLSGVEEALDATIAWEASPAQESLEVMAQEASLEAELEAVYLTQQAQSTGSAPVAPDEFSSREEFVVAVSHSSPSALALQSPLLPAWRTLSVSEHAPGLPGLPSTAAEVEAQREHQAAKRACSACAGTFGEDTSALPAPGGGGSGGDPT
methodSummary: in vitro enzyme assay PDE4A (Table 7)
Type: biochemical
testContext: 2 micromolar compound; read-out: percent of PDE activity present, PDE4A
Please provide measured remaining activity at 2 µM for the entries that follow.
Numeric only. Scale: %

I am curious: what remaining activity at 2 µM value has been reported for Cc1c(C(=O)Nc2ccc(F)cc2F)sc2ncnc(N3CCC(C)CC3)c12 [Compound 58] ? 31

I am curious: what remaining activity at 2 µM value has been reported for Cc1nc(N2CCC(C)CC2)c2c(C)c(C(=O)Nc3c(F)cc(F)cc3Br)sc2n1 [Compound 58-5] ? 69

I am curious: what remaining activity at 2 µM value has been reported for Cc1c(C(=O)Nc2ccc(F)cc2F)sc2ncnc(N3CCN(C)CC3)c12 [Compound 58-1] ? 84

I am curious: what remaining activity at 2 µM value has been reported for Cc1c(C(=O)Nc2ccc3c(c2)OCCO3)sc2ncnc(N3CCc4ccccc4C3)c12 [Compound 58-10] ? 60

I am curious: what remaining activity at 2 µM value has been reported for Cc1c(C(=O)Nc2ccc(F)cc2F)sc2ncnc(N(C)c3ccccc3)c12 [Compound 58-9] ? 84

I am curious: what remaining activity at 2 µM value has been reported for COc1cc(NC(=O)c2sc3ncnc(N4CCCCC4C)c3c2C)cc(OC)c1OC (stereo not drawn) [Compound 58-3] ? 14

I am curious: what remaining activity at 2 µM value has been reported for CCN(CC)c1nc(C)nc2sc(C(=O)Nc3ccc(F)cc3F)c(C)c12 [Compound 58-6] ? 73

I am curious: what remaining activity at 2 µM value has been reported for Cc1nc(N2CCOCC2)c2c(C)c(C(=O)Nc3ccc(F)cc3F)sc2n1 [Compound 58-2] ? 26

I am curious: what remaining activity at 2 µM value has been reported for Cc1nc(N2CCCCC2C)c2c(C)c(C(=O)Nc3ccc(F)cc3F)sc2n1 (stereo not drawn) [Compound 58-4] ? 26
